Measured IC50 values are reported for all entries that follow.
# ASSAY TARGET: wild-type menin / MLL-AF9 fusion protein (Homo sapiens, UniProt O00255)
# Construct: HEK293 cleared lysate (MLL-AF9-FLAG)
# PROTOCOL NOTES: AlphaLISA menin/MLL binding assay, wild-type menin (Assay 1)
# PROTOCOL CONDITIONS: biotinylated wild-type menin 5 nM, MLL-AF9-FLAG lysate
ENDPOINT NAME: IC50

INSERT INTO results (molecule, reading) VALUES
  ('CC(=O)Nc1cccc(CN2CCC3(CCN(c4ncnc5sc(CC(F)(F)F)cc45)C3)C2)c1 (stereo not shown)', '< 0.1 µM'),
  ('O=C1CC2(CCN(Cc3ccc4[nH]c(=O)[nH]c4c3)C2)CN1c1ncnc2sc(CC(F)(F)F)cc12 (stereo not shown)', '0.1 to 1 µM'),
  ('O=c1[nH]c2ccc(CN3CCC4(CCN(c5ncnc6sc(CC(F)(F)F)cc56)C4)C3)cc2o1 (stereo not shown)', '< 0.1 µM'),
  ('Cn1c(=O)[nH]c2cc(CN3CCC4(CCN(c5ncnc6sc(CC(F)(F)F)cc56)C4)C3)ccc21 (stereo not shown)', '< 0.1 µM'),
  ('CCC(C)CN1CCC2(CC1)CN(c1ncnc3sc(CC(F)(F)F)cc13)C2 (stereo not shown)', '0.1 to 1 µM'),
  ('Cc1c(CN2CC3(CCN(c4ncnc5sc(CC(F)(F)F)cc45)CC3)C2)ccc2[nH]c(C#N)cc12', '0.1 to 1 µM'),
  ('OC1CCC(CN2CC3(C2)CN(c2ncnc4sc(CC(F)(F)F)cc24)C3)CC1 (stereo not shown)', '< 0.1 µM'),
  ('CS(=O)(=O)N[C@H]1CC[C@@H](CN2CCC3(CCN(c4ncnc5sc(CC(F)(F)F)cc45)C3)C2)CC1 (stereo partly shown)', '< 0.1 µM'),
  ('FC(F)(F)Cc1cc2c(N3CCC4(CC3)CN(CC3CC(F)(F)C3)C4)ncnc2s1', '0.1 to 1 µM'),
  ('COC(=O)N[C@H]1CC[C@@H](CN2CCC3(CCN(c4ncnc5sc(CC(F)(F)F)cc45)C3)C2)CC1 (stereo partly shown)', '0.1 to 1 µM'),
  ('FC(F)(F)Cc1cc2c(N3CCC4(CC3)CN(CC3CCCC(F)(F)C3)C4)ncnc2s1 (stereo not shown)', '0.1 to 1 µM'),
  ('FC(F)(F)Cc1cc2c(N3CC4(CN(CC5CCOCC5)C4)C3)ncnc2s1', '0.1 to 1 µM'),
  ('FC(F)(F)Cc1cc2c(N3CC4(CCN(CC5CCOCC5)CC4)C3)ncnc2s1', '0.1 to 1 µM'),
  ('CS(=O)(=O)Nc1ccc(CN2CCC3(CCN(c4ncnc5sc(CC(F)(F)F)cc45)C3)C2)cc1 (stereo not shown)', '< 0.1 µM'),
  ('CS(=O)(=O)N[C@H]1CC[C@H](CN2CCC3(CC2)CN(c2ncnc4sc(CC(F)(F)F)cc24)C3)CC1', '< 0.1 µM'),
  ('COC(=O)N[C@H]1CC[C@H](CN2CCC3(CCN(c4ncnc5sc(CC(F)(F)F)cc45)C3)C2)CC1 (stereo partly shown)', '< 0.1 µM'),
  ('FC(F)(F)Cc1cc2c(N3CCC4(CCN(Cc5ccccc5)C4)CC3)ncnc2s1', '0.1 to 1 µM'),
  ('Cc1c(CN2CC[C@@]3(CCN(c4ccnc5ccc(CC(F)(F)F)cc45)C3)C2)ccc2[nH]c(C#N)cc12 (single isomer, unassigned) [Example 86b]', '0.1 to 1 µM'),
  ('O=C(C1CCCCN1)N1CC2(C1)CN(c1ncnc3sc(CC(F)(F)F)cc13)C2 (stereo not shown)', '0.1 to 1 µM'),
  ('FC(F)(F)Cc1cc2c(N3CC4(CN(CC5CCCC5)C4)C3)ncnc2s1', '< 0.1 µM'),
  ('N#Cc1ccc2c(CN3CC4(CCN(c5ncnc6sc(CC(F)(F)F)cc56)CC4)C3)c[nH]c2c1', '0.1 to 1 µM'),
  ('Cc1c(CN2CCC3(CCN(c4ncnc5sc(CC(F)(F)F)cc45)CC3)C2)ccc2[nH]c(C#N)cc12', '< 0.1 µM'),
  ('FC(F)(F)Cc1cc2c(N3CCC4(CC3)CN(CC3CCOC3)C4)ncnc2s1 (stereo not shown)', '0.1 to 1 µM'),
  ('CC1(C)CCCC(CN2CC3(C2)CN(c2ncnc4sc(CC(F)(F)F)cc24)C3)C1 (stereo not shown)', '< 0.1 µM'),
  ('CS(=O)(=O)c1ccc(CC(=O)N2CC3(C2)CN(c2ncnc4sc(CC(F)(F)F)cc24)C3)cc1', '0.1 to 1 µM'),
  ('CCC(C)CN1CC2(CCN(c3ncnc4sc(CC(F)(F)F)cc34)CC2)C1 (stereo not shown)', '0.1 to 1 µM'),
  ('Cc1c(CN2CCC3(CCN(c4ncnc5sc(CC(F)(F)F)cc45)C3)C2)ccc2[nH]c(C#N)cc12 (single isomer, unassigned) [Example 30a]', '< 0.1 µM'),
  ('COC(=O)Nc1cccc(CN2CCC3(CCN(c4ncnc5sc(CC(F)(F)F)cc45)C3)C2)c1 (stereo not shown)', '< 0.1 µM'),
  ('FC(F)(F)Cc1nc2c(N3CCC4(CCN(Cc5ccccc5)C4)C3)ncnc2s1 (stereo not shown)', '0.1 to 1 µM'),
  ('FC(F)(F)Cc1cc2c(N3CCC4(CN(Cc5ccccc5)C4)C3)ncnc2s1', '0.1 to 1 µM'),
  ('CC(C)N1CC2(CCN(c3ncnc4sc(CC(F)(F)F)cc34)CC2)C1', '≥ 1 µM');

----------
# ASSAY TARGET: menin/MLL (Gal4-Menin and MLL1-46-VP16) in HEK293 cells (Homo sapiens)
# Construct: expressed in transfected cells; host or cells: HEK293 (ATCC)
# PROTOCOL NOTES: Mammalian cellular two-hybrid assay in HEK293 cells (Assay 2, cell assay)
# Format: cell-based
# PROTOCOL CONDITIONS: Gal4-Menin/MLL1-46-VP16 two-hybrid, NanoLuc luciferase reporter, 16-18 h
Counter-ions that a name gives are not always drawn.
ENDPOINT NAME: IC50

INSERT INTO results (compound, endpoint_name, reading) VALUES
  ('FC(F)(F)Cc1cc2c(N3CCC4(CN(CC5CCOCC5)C4)C3)ncnc2s1', 'IC50', '100 to 1000 nM'),
  ('Cc1c(CN2CCC3(CC2)CN(c2ncnc4sc(CC(F)(F)F)cc24)C3)ccc2[nH]c(C#N)cc12 [Example 96, hydrochloride]', 'IC50', '< 100 nM'),
  ('CS(=O)(=O)Cc1ccc(CC(=O)N2CC3(C2)CN(c2ncnc4sc(CC(F)(F)F)cc24)C3)cc1', 'IC50', '≥ 1000 nM'),
  ('CC(=O)Nc1ccc(CN2CCC3(CCN(c4ncnc5sc(CC(F)(F)F)cc45)C3)C2)c(Cl)c1 (stereo not shown)', 'IC50', '100 to 1000 nM');

----------
# ASSAY TARGET: wild-type menin / MLL-AF9 fusion protein (Homo sapiens)
# Construct: HEK293 cleared lysate (MLL-AF9-FLAG)
# PROTOCOL NOTES: AlphaLISA menin/MLL binding assay, wild-type menin (Assay 1)
# PROTOCOL CONDITIONS: biotinylated wild-type menin 5 nM, MLL-AF9-FLAG lysate
pIC50: −log10 of the molar value.
ENDPOINT NAME: pIC50

INSERT INTO results (compound, reading) VALUES
  ('CC(C)CN1CC2(CCN(c3ncnc4sc(CC(F)(F)F)cc34)CC2)C1', '6.00 to 7.00'),
  ('FC(F)(F)Cc1cc2c(N3CCC4(CCN(CC5CCOC5)C4)C3)ncnc2s1 (stereo not shown)', '6.00 to 7.00'),
  ('Cc1c(CN2CCC3(CCN(c4ncnc5sc(CC(F)(F)F)cc45)C3)C2)ccc2[nH]c(C#N)cc12 (single isomer, unassigned) [Example 30b]', '> 7.00'),
  ('CC(C)CN1CCC2(CC1)CN(c1ncnc3sc(CC(F)(F)F)cc13)C2', '6.00 to 7.00'),
  ('FC(F)(F)Cc1cc2c(N3CCC4(CCN(Cc5ccc6cc[nH]c6c5)C4)C3)ncnc2s1 (stereo not shown)', '> 7.00'),
  ('CC(C)CN1CC2(CCN(c3ncnc4ccc(CC(F)(F)F)cc34)CC2)C1', '≤ 6.00'),
  ('CC(C)CN1CC2(CCN(c3ncnc4sc(CC(F)(F)F)cc34)C2)C1', '> 7.00');

----------
# ASSAY TARGET: wild-type menin / MLL-AF9 fusion protein (Homo sapiens)
# Construct: HEK293 cleared lysate (MLL-AF9-FLAG)
# Sequence (O00255 1-610): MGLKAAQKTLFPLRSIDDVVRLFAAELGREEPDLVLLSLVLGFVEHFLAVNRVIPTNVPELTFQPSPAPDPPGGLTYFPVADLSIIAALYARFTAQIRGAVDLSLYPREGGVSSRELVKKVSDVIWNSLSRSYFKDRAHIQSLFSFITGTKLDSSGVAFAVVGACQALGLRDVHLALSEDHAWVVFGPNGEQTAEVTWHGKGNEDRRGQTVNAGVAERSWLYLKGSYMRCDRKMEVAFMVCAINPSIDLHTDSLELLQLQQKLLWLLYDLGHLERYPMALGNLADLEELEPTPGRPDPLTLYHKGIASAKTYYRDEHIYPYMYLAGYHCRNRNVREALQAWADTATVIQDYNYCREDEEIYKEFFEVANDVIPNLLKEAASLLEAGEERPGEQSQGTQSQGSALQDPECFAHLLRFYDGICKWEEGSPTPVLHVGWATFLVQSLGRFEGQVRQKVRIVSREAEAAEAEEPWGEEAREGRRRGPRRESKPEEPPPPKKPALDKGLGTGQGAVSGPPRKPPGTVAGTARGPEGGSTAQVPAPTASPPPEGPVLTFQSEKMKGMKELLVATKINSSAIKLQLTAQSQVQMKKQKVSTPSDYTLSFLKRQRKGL
# PROTOCOL NOTES: AlphaLISA menin/MLL binding assay, wild-type menin (Assay 1)
# PROTOCOL CONDITIONS: biotinylated wild-type menin 5 nM, MLL-AF9-FLAG lysate
Measured IC50 values are reported for all entries that follow.
ENDPOINT NAME: IC50

INSERT INTO assay_data (molecule, endpoint_name, reading) VALUES
  ('Cc1cc(NS(C)(=O)=O)ccc1CN1CCC2(CCN(c3ncnc4sc(CC(F)(F)F)cc34)C2)C1 (stereo not shown) [Example 54]', 'IC50', '< 100 nM'),
  ('CC(C)(O)CN1CC2(CCN(c3ncnc4sc(CC(F)(F)F)cc34)CC2)C1 [Example 15]', 'IC50', '≥ 1000 nM'),
  ('FC(F)(F)Cc1cc2c(N3CCC4(CCN(CC5CCC(F)(F)CC5)C4)C3)ncnc2s1 (stereo not shown) [Example 32]', 'IC50', '100 to 1000 nM'),
  ('N#Cc1ccc(CN2CCC3(CCN(c4ncnc5sc(CC(F)(F)F)cc45)C3)C2)cc1 (stereo not shown) [Example 33]', 'IC50', '< 100 nM'),
  ('FC(F)(F)Cc1cc2c(N3CC4(CN(CC5COC5)C4)C3)ncnc2s1 [Example 73]', 'IC50', '≥ 1000 nM'),
  ('FC(F)(F)Cc1cc2c(N3CC4(CCN(C[C@H]5CC[C@H](C(F)(F)F)CC5)CC4)C3)ncnc2s1 [Example 102]', 'IC50', '100 to 1000 nM'),
  ('O=S(=O)(N[C@H]1CC[C@H](CN2CC3(C2)CN(c2ncnc4sc(CC(F)(F)F)cc24)C3)CC1)C1CC1 [Example 72]', 'IC50', '100 to 1000 nM'),
  ('O=C([C@@H]1CCCN1)N1CCC2(CCN(c3ncnc4sc(CC(F)(F)F)cc34)C2)C1 (stereo partly shown) [Example 57]', 'IC50', '100 to 1000 nM'),
  ('CC(=O)Nc1ccc(CN2CCC3(CC2)CN(c2ncnc4sc(CC(F)(F)F)cc24)C3)cc1 [Example 103]', 'IC50', '100 to 1000 nM'),
  ('CC(C)N1CC2(CCN(c3ncnc4sc(CC(F)(F)F)nc34)CC2)C1 [Example 80]', 'IC50', '≥ 1000 nM');
